This listing pairs substances with measured Vd.
assay: Pharmacokinetics after single intravenous dose in rats; conditions: rat, in vivo, iv, 10 ug/kg, Vss, individual rats; single i.v. 10 μg/kg, Sprague Dawley rats
Ends that are not written are not given here.
Endpoint Name: Vd (L/kg)

>>> df
                                  substance  endpoint_name  unit_symbol  value
0  HVEGTFTSDVSSYLEEQAAKEFIAWLIKGGPSSGDPPPS-NH2 [Compound 1]             Vd         L/kg  0.273
1  HVEGTFTSDVSSYLEEQAAKEFIAWLVKGRGSSGAPPPS [Compound 3]             Vd         L/kg  0.263
